Data provenance is paper PMC4242493.

Biological target: MaxL homodimer (Homo sapiens, UniProt P61244 1-160)
Sequence (P61244 whole entry): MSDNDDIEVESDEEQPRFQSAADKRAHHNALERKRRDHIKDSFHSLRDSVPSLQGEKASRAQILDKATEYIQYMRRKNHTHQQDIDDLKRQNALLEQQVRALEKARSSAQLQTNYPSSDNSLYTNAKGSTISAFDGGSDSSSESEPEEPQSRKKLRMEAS
Test: universal protein-binding microarray (PBM); PBS-based mixture, 10 nM His-tagged protein dimer, 2% milk, 200 ng/uL BSA, 50 ng/uL salmon testes DNA, 0.02% TX-100; detection with Alexa 488 anti-His antibody;; high values mean tight binding;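 also: fluorescence intensity normalized to that of the highest-ranked 8-mer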
Conditions: protein: recombinant; tags: C-terminal His-tag (pET21a); chain copies: 2; dsDNA, one strand shown
Whole data set: some 33,000 sequences, median “normalized occupancy” near 0.075, cut for the highest 2% near 0.095. The list comes from a sample in which the highest values are over-represented; it also holds close analogues and randomly drawn sequences.
Measured binding signal, listed per entry.
OUTCOME_MEASURE: binding signal

• AGCCATGG = 0.0832 normalized occupancy
• ACATCGTA = 0.0832 normalized occupancy
• AATGGGAA = 0.0775 normalized occupancy
• GGGTCTAC = 0.0725 normalized occupancy
• CCGTGAAG = 0.0739 normalized occupancy
• AGCCATGC = 0.0996 normalized occupancy
• ACATCGTG = 0.0998 normalized occupancy
• GCATGGCA = 0.102 normalized occupancy
• GCATGATA = 0.0994 normalized occupancy
• ACCTCGTC = 0.0738 normalized occupancy
• ACCTCATA = 0.0788 normalized occupancy
• GTATGATA = 0.0877 normalized occupancy
• ACATGGGA = 0.0901 normalized occupancy
• ACGTGAAT = 0.0824 normalized occupancy
• CGCCATGC = 0.0988 normalized occupancy
• CGCCATGA = 0.0842 normalized occupancy
• CAATTCTA = 0.0752 normalized occupancy
• ACGTGATC = 0.108 normalized occupancy
• ACGTGAAA = 0.097 normalized occupancy
• AAGTGAAG = 0.076 normalized occupancy
• ACGTCTTG = 0.0724 normalized occupancy
• ACCTCATG = 0.113 normalized occupancy
